target-desc: sIL-6R (soluble IL-6 receptor alpha) (human, UniProt P08887 20-355)
Sequence (P08887 20-355): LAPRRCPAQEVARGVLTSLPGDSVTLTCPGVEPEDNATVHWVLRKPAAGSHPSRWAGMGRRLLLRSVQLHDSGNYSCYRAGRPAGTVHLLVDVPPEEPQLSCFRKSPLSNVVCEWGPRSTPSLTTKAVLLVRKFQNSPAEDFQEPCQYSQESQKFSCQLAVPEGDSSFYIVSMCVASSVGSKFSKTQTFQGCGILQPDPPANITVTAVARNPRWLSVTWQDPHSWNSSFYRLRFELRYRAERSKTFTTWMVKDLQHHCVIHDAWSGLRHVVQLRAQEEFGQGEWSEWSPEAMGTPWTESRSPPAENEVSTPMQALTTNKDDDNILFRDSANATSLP
assay-info: pull-down, real-time PCR; 1x PBSMT pH 7.2: 137 mM NaCl, 2.68 mM KCl, 8.1 mM Na2HPO4, 1.76 mM KH2PO4, 1 mM MgCl2, 0.025% Tween-20; pull-down 1 h (room temperature in SELEX); MST at 25 C
setup-conditions: protein: commercial; circular
pKd: −log10 of the molar value.

binder | pKd
CIL-6A (ssDNA, circular (5'-3' ligated)) DNA: ATCTCGACTAGTCAGTGGTGGATACCGGATGGGGAGGCTGTGGTGAGGGTATGGTTGTCTCGGATTGGTTGTCTCGGAT | 8.16
